tested on: MCF7; experiment: NCI tumour cell line growth inhibition, 48 h
The source made the active and inactive calls. Rule as the data show it: active = GI50 up to about 1.1 µM and inactive = higher.
Reply using exactly one outcome from true for active, false for inactive

COMPOUND: NC1=Nc2ccccc2Sc2nccn21
MEASUREMENT_TARGET: MCF7
CLASSIFICATION: false

Kindly review the next compound as well.
Enquiry: Outcome logged for `COc1cc(/C=C2/C(=O)N(C(=O)c3ccccc3O)N=C2C)cc(OC)c1OC` in this assay:
Return: true

====

tested on: UO-31; experiment: NCI tumour cell line growth inhibition, 48 h
Active and inactive are the calls of the source. No stated cut-off is given here; in the data, active = GI50 up to about 1.1 µM and inactive = higher.
Reply using exactly one outcome from active, inactive

MOLECULE: Cn1/c(=N\S(=O)(=O)c2ccccc2)n(S(=O)(=O)c2ccccc2)c2ccccc21
CLASSIFICATION: inactive

MOLECULE: COc1nc(N)c(C(=O)CCl)c(=O)n1C
CLASSIFICATION: inactive

MOLECULE: O=[N+]([O-])/C=C/c1cc2ccccc2[nH]1
CLASSIFICATION: inactive

MOLECULE: COC(=O)C(Cc1nc2ccccc2nc1O)C(=O)C(=O)Nc1ccc([N+](=O)[O-])cc1[N+](=O)[O-] (centres undefined)
CLASSIFICATION: inactive

MOLECULE: NS(=O)(=O)c1ccc(NC(=O)c2cccc3cc4ccccc4nc23)cc1
CLASSIFICATION: inactive

MOLECULE: O=C(O)CN(CC(=O)O)C1CCCCC1N(CC(=O)O)CC(=O)NCCN=C=S (centres undefined)
CLASSIFICATION: inactive

MOLECULE: CCCN(CCCC(NC(C)=O)C(=O)NCc1ccccc1)C(=O)NC (centres undefined)
CLASSIFICATION: inactive

MOLECULE: O=C1N2Cc3c4ccc5c3CN3C(=O)N6Cc7c(ccc(c7CN1C6(c1ccccc1)C23c1ccccc1)OCCOCCNCCOCCO4)OCCOCCNCCOCCO5 (centres undefined)
CLASSIFICATION: inactive

MOLECULE: Cc1oc2c(C)c3oc(=O)cc(C)c3cc2c1CN1C(=O)C2OCCOCCOCCOCCOCCO[C@H]2C1=O (some centres undefined)
CLASSIFICATION: inactive

MOLECULE: CCOC(=O)C(NC(C)=O)(Nc1ccc(F)cc1)C(F)(F)F (centres undefined)
CLASSIFICATION: inactive

Enquiry: Outcome logged for C#CC(O)/C=C/C(O)CCCC(O)CC#CC(O)C#CCCCCC(O)/C=C/CCCC(=O)CCCCCCCCCCCCCCCC(O)C(O)C#CC(=O)O (centres undefined) in this assay:
Return: inactive

Enquiry: Outcome logged for `CC(=O)CCn1[nH]c(=O)c(Cl)c(Cl)c1=O` in this assay:
Return: inactive

Enquiry: Outcome logged for `O=c1[nH]nc(Cc2ccccc2)n1-n1cnnc1` in this assay:
Return: inactive

Enquiry: Outcome logged for C=C(C)C(=O)OC1C/C(CO)=C\C(O)C/C(C)=C/C2OC(=O)C(=C)C21 (centres undefined) in this assay:
Return: inactive

Enquiry: Outcome logged for COC([C@@H](OC(=O)c1ccccc1)[C@H](OC(=O)c1ccccc1)C(O)COC(=O)c1ccccc1)n1cc(C)c(=O)[nH]c1=O (some centres undefined) in this assay:
Return: inactive
